Target: T1, human recombinant HLA-B*08:01 with b2m (human)
T1 construct: Peptide-receptive MHC class I used in the pMHC stability assay by ImmunAware; also called MHC heavy chain and b2m
Experiment: pMHC stability assay at 37 C, mean half-life of b2m on heavy chain, grade (T1/2 >2 h = +; >4 h = ++; >6 h = +++; >10 h = ++++)
Measured mean half-life (T1/2) of peptide-MHC complex, listed per entry for reference.
property name: mean half-life (T1/2) of peptide-MHC complex

>  <binder>
ILAIRQNAL (synthetic peptide; also called AGPAT5 peptide) [peptide ILAIRQNAL (SEQ ID NO: 108)]

>  <data value>
4 to 6 h

$$$$
>  <binder>
QAAQRTAL (synthetic peptide; also called AFF3 peptide) [peptide QAAQRTAL (SEQ ID NO: 107)]

>  <data value>
4 to 6 h

$$$$
>  <binder>
YIKTAKKL (synthetic peptide; also called RALGPS2 peptide) [peptide YIKTAKKL (SEQ ID NO: 117)]

>  <data value>
4 to 6 h

$$$$
>  <binder>
LGHVRYVL (synthetic peptide; also called AGPAT5 peptide) [peptide LGHVRYVL (SEQ ID NO: 109)]

>  <data value>
2 to 4 h

$$$$
>  <binder>
FGLARIYSF (synthetic peptide; also called CDK6 peptide) [peptide FGLARIYSF (SEQ ID NO: 110)]

>  <data value>
2 to 4 h

$$$$
>  <binder>
DLRTKEVVF (synthetic peptide; also called SIPA1L3 peptide) [peptide DLRTKEVVF (SEQ ID NO: 119)]

>  <data value>
4 to 6 h

$$$$
>  <binder>
FEKEKKESL (synthetic peptide; also called SESN3 peptide) [peptide FEKEKKESL (SEQ ID NO: 118)]

>  <data value>
6 to 10 h

$$$$
>  <binder>
APLLRHWEL (synthetic peptide; also called HLA-DOA peptide) [peptide APLLRHWEL (SEQ ID NO: 112)]

>  <data value>
2 to 4 h

$$$$
